Value source: patent US20100222280A1

target: TGF-β1 (Roche)
Sequence (P01137 279-390): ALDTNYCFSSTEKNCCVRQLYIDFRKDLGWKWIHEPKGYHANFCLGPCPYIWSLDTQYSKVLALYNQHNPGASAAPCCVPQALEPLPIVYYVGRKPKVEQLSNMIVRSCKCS
protocol description: cell-based or functional assay
The following binders are listed with their measured % Inhibition (Mv-1-Lu cell line growth reestablishment, 3H-thymidine) values.
measured property: % Inhibition (Mv-1-Lu cell line growth reestablishment, 3H-thymidine) (%)

>  <binder>
DRRIFWWSLRSAPGA (15-aa peptide) [peptide identified by SEQ ID NO: 1]

>  <numeric result>
3.33

$$$$
>  <binder>
WHWRHRIPLQLAAGR (15-aa peptide) [peptide identified by SEQ ID NO: 8]

>  <numeric result>
15.7

$$$$
>  <binder>
GWHSLLHSRYHRLAA (15-aa peptide) [peptide identified by SEQ ID NO: 9]

>  <numeric result>
4.98

$$$$
